# log10(Drug metabolism) listing for each entry below
experiment: Prodrug conversion in Normal human bronchial epithelial cells assessed as ((2R,3S,4R,5S)-5-(4-aminopyrrolo[2,1-f][1,2,4]triazin-7-yl)-2-cyano-3,4-dihydroxytetrahydrofuran-2-yl)methyl tetrahydrogen triphosphate formation measured per million cells at 10 uM incubated for 2 hrs by LC-MS/MS analysis; format: ADME, cell-based; conditions: epithelial cell
experimental endpoint: log10(Drug metabolism) (log10 of the value in pM)

# molecule, test result
rows = [
    ("CC(=O)O[C@H]1[C@H](c2ccc3c(N)ncnn23)O[C@](C#N)(CO[P@@](=O)(N[C@@H](C)C(=O)OC2CCCCC2)Oc2ccccc2)[C@H]1OC(C)=O", 1.60),
    ("CC(C)C(=O)O[C@H]1[C@H](c2ccc3c(N)ncnn23)O[C@](C#N)(CO[P@@](=O)(N[C@@H](C)C(=O)OC2CCCCC2)Oc2ccccc2)[C@H]1OC(=O)C(C)C", 2.23),
    ("CCC(=O)O[C@H]1[C@H](c2ccc3c(N)ncnn23)O[C@](C#N)(CO[P@@](=O)(NC(C)C(=O)OC)Oc2ccccc2)[C@H]1OC(=O)CC (stereo partly drawn)", 2.58),
    ("COC(=O)[C@H](C)N[P@](=O)(OC[C@@]1(C#N)O[C@@H](c2ccc3c(N)ncnn23)[C@H](OC(=O)C(C)C)[C@@H]1OC(=O)C(C)C)Oc1ccccc1", 2.96),
    ("CCCOC(=O)[C@H](C)N[P@](=O)(OC[C@@]1(C#N)O[C@@H](c2ccc3c(N)ncnn23)[C@H](OC(=O)C(C)C)[C@@H]1OC(=O)C(C)C)Oc1ccccc1", 2.60),
    ("C[C@H](N[P@](=O)(OC[C@@]1(C#N)O[C@@H](c2ccc3c(N)ncnn23)[C@H](O)[C@@H]1O)Oc1ccccc1)C(=O)OC1CCCCC1", 1.11),
    ("CCCOC(=O)[C@H](C)N[P@](=O)(OC[C@@]1(C#N)O[C@@H](c2ccc3c(N)ncnn23)[C@H](OC(=O)CC)[C@@H]1OC(=O)CC)Oc1ccccc1", 2.22),
    ("COC(=O)[C@H](C)N[P@](=O)(OC[C@@]1(C#N)O[C@@H](c2ccc3c(N)ncnn23)[C@H](O)[C@@H]1O)Oc1ccccc1", 1.18),
]

###

assay: AUC (0 to 24 hrs) in Cynomolgous monkey at 5 mg/kg, iv measured after 30 mins by LC-MS/MS analysis; type: ADME, organism-based, Macaca fascicularis; conditions: cynomolgus monkey, in vivo

# structure notation, AUC(0-t) at 0.5 h, µM·h
data = [
    ("COC(=O)[C@H](C)N[P@](=O)(OC[C@@]1(C#N)O[C@@H](c2ccc3c(N)ncnn23)[C@H](OC(=O)C(C)C)[C@@H]1OC(=O)C(C)C)Oc1ccccc1", 0.962),
]

###

experiment: Distribution coefficient, log D of compound measured after 30 mins by HPLC/UV analysis; format: physicochemical; conditions: octanol/water
The entries below are paired with their reported logD at 0.5 h.

# molecule, logD at 0.5 h
rows = [
    ("CC(C)OC(=O)[C@H](C)N[P@](=O)(OC[C@@]1(C#N)O[C@@H](c2ccc3c(N)ncnn23)[C@H](O)[C@@H]1O)Oc1ccccc1", 1.3),
    ("CCC(=O)O[C@H]1[C@H](c2ccc3c(N)ncnn23)O[C@](C#N)(CO[P@@](=O)(NC(C)C(=O)OC)Oc2ccccc2)[C@H]1OC(=O)CC (stereo not given in full)", 2.2),
    ("COC(=O)[C@H](C)N[P@](=O)(OC[C@@]1(C#N)O[C@@H](c2ccc3c(N)ncnn23)[C@H](OC(=O)C(C)C)[C@@H]1OC(=O)C(C)C)Oc1ccccc1", 3),
    ("CC(C)C(=O)O[C@H]1[C@H](c2ccc3c(N)ncnn23)O[C@](C#N)(CO[P@@](=O)(N[C@@H](C)C(=O)OC2CCCCC2)Oc2ccccc2)[C@H]1OC(=O)C(C)C", 4),
    ("CC(=O)O[C@H]1[C@H](c2ccc3c(N)ncnn23)O[C@](C#N)(CO[P@@](=O)(N[C@@H](C)C(=O)OC2CCCCC2)Oc2ccccc2)[C@H]1OC(C)=O", 2.9),
]

###

test system: Respiratory syncytial virus; assay: Antiviral activity against RSV A2 infected in human HEp-2 cells incubated for 4 days by Cell Titer Glo assay; format: functional, organism-based; conditions: A2, HEp-2, 96 h
pEC50: −log10 of the molar value.
experimental endpoint: pEC50

# compound, experimental endpoint, relation symbol, test result
rows = [
    ("CCC(=O)O[C@H]1[C@H](c2ccc3c(N)ncnn23)O[C@](C#N)(CO[P@@](=O)(NC(C)C(=O)OC)Oc2ccccc2)[C@H]1OC(=O)CC (stereo partly drawn)", "pEC50", "=", 7.04),
    ("N#C[C@]1(CO)O[C@@H](c2ccc3c(N)ncnn23)[C@H](O)[C@@H]1O", "pEC50", "=", 5.17),
    ("CCCOC(=O)[C@H](C)N[P@](=O)(OC[C@@]1(C#N)O[C@@H](c2ccc3c(N)ncnn23)[C@H](OC(=O)CC)[C@@H]1OC(=O)CC)Oc1ccccc1", "pEC50", "=", 7.39),
    ("CCCOC(=O)[C@H](C)N[P@](=O)(OC[C@@]1(C#N)O[C@@H](c2ccc3c(N)ncnn23)[C@H](O)[C@@H]1O)Oc1ccccc1", "pEC50", "=", 7.26),
    ("C=C[C@]1(CO)O[C@@H](c2ccc3c(N)ncnn23)[C@H](O)[C@@H]1O", "pEC50", "<", 4.30),
    ("CCOC(=O)[C@H](C)N[P@](=O)(OC[C@@]1(C#N)O[C@@H](c2ccc3c(N)ncnn23)[C@H](O)[C@@H]1O)Oc1ccccc1", "pEC50", "=", 7.02),
    ("CCC(=O)O[C@H]1[C@H](c2ccc3c(N)ncnn23)O[C@](C#N)(CO[P@@](=O)(N[C@@H](C)C(=O)OC2CCCCC2)Oc2ccccc2)[C@H]1OC(=O)CC", "pEC50", "=", 7.22),
    ("C[C@H](N[P@@](=O)(OC[C@@]1(C#N)O[C@@H](c2ccc3c(N)ncnn23)[C@H](O)[C@@H]1O)Oc1ccccc1)C(=O)OC1CCCCC1", "pEC50", "=", 5.51),
]

###

experiment: Cytotoxicity against human Hep-2 cells incubated for 4 to 5 days by Cell Titer Glo assay; assay type: toxicity, cell-based; conditions: time 4-5 day
experimental endpoint: CC50

# compound, test result
measured = [
    ("C=C[C@]1(CO)O[C@@H](c2ccc3c(N)ncnn23)[C@H](O)[C@@H]1O", "> 50 µM"),
    ("CC(C)OC(=O)[C@H](C)N[P@](=O)(OC[C@@]1(C#N)O[C@@H](c2ccc3c(N)ncnn23)[C@H](O)[C@@H]1O)Oc1ccccc1", "> 50 µM"),
    ("C[C@H](N[P@](=O)(OC[C@@]1(C#N)O[C@@H](c2ccc3c(N)ncnn23)[C@H](O)[C@@H]1O)Oc1ccccc1)C(=O)OC1CCOCC1", "> 50 µM"),
    ("Nc1ncnn2c([C@@H]3O[C@@](CO)(CCl)[C@@H](O)[C@H]3O)ccc12", "> 38 µM"),
    ("COC(=O)[C@H](C)N[P@](=O)(OC[C@@]1(C#N)O[C@@H](c2ccc3c(N)ncnn23)[C@H](O)[C@@H]1O)Oc1ccccc1", "> 50 µM"),
    ("CCOC(=O)[C@H](C)N[P@](=O)(OC[C@@]1(C#N)O[C@@H](c2ccc3c(N)ncnn23)[C@H](O)[C@@H]1O)Oc1ccccc1", "> 100 µM"),
    ("N#C[C@]1(CO)O[C@@H](c2ccc3c(N)ncnn23)[C@H](O)[C@@H]1O", "> 50 µM"),
    ("N#C[C@]1(CO)O[C@@H](c2ccc3c(N)ncnn23)[C@H](F)[C@@H]1O", "> 100 µM"),
    ("CCCOC(=O)[C@H](C)N[P@](=O)(OC[C@@]1(C#N)O[C@@H](c2ccc3c(N)ncnn23)[C@H](OC(=O)C(C)C)[C@@H]1OC(=O)C(C)C)Oc1ccccc1", "15.7 µM"),
    ("CCC(=O)O[C@H]1[C@H](c2ccc3c(N)ncnn23)O[C@](C#N)(CO[P@@](=O)(NC(C)C(=O)OC)Oc2ccccc2)[C@H]1OC(=O)CC (some centres undefined)", "30 µM"),
    ("[N-]=[N+]=N[C@]1(CO)O[C@@H](c2ccc3c(N)ncnn23)[C@H](O)[C@@H]1O", "> 50 µM"),
    ("CCCOC(=O)[C@H](C)N[P@](=O)(OC[C@@]1(C#N)O[C@@H](c2ccc3c(N)ncnn23)[C@H](O)[C@@H]1O)Oc1ccccc1", "> 50 µM"),
    ("CCC(=O)O[C@H]1[C@H](c2ccc3c(N)ncnn23)O[C@](C#N)(CO[P@@](=O)(N[C@@H](C)C(=O)OC2CCCCC2)Oc2ccccc2)[C@H]1OC(=O)CC", "33.9 µM"),
    ("CCC(CC)OC(=O)[C@H](C)NP(=O)(OC[C@@]1(C#N)O[C@@H](c2ccc3c(N)ncnn23)[C@H](O)[C@@H]1O)Oc1ccccc1 (some centres undefined)", "> 93 µM"),
]
